experimental.target: ALK tyrosine kinase receptor (Homo sapiens, UniProt Q9UM73, G1202R)
Sequence (Q9UM73 19-1620 G1202R limits assumed): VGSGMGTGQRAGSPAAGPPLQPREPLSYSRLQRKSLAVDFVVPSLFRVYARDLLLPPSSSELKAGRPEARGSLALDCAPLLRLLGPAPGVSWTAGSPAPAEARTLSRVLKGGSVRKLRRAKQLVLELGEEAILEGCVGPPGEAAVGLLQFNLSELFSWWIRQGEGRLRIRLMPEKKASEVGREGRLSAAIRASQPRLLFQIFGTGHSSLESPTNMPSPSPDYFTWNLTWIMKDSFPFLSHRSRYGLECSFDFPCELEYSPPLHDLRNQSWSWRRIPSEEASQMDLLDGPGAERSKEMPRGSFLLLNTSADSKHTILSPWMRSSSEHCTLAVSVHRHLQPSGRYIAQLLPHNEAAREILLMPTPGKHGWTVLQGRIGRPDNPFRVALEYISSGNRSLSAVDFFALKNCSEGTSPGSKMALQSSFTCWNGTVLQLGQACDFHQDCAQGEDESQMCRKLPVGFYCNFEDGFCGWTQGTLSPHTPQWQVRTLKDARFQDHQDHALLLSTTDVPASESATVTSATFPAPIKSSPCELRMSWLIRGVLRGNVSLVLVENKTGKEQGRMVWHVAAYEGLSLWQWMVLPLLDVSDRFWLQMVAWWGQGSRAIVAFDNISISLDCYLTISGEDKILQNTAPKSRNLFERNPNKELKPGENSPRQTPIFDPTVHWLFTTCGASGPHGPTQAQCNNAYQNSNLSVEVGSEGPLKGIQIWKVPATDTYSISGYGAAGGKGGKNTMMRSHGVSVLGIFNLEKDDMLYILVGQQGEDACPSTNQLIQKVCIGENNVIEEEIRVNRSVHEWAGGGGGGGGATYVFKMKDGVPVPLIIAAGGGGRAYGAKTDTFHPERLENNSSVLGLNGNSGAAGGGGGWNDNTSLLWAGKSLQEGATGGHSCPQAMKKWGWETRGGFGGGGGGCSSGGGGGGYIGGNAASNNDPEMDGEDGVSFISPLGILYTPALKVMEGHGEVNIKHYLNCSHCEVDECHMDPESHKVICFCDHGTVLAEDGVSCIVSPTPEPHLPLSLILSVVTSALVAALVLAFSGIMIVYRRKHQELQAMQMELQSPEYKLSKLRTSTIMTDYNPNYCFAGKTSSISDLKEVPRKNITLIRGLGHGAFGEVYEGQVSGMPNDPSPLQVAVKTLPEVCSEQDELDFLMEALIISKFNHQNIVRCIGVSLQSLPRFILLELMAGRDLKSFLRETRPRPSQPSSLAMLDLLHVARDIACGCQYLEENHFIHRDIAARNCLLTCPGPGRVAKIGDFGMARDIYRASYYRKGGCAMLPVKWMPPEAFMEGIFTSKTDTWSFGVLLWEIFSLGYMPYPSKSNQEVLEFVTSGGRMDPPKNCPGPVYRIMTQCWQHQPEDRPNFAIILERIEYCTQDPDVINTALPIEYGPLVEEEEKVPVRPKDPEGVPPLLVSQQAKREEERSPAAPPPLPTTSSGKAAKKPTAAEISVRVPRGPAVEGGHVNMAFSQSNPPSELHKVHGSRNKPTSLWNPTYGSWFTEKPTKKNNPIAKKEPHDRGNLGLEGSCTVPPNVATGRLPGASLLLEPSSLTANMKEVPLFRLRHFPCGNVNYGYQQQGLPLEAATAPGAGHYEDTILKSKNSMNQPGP
test.summary: Inhibition of ALK G1202R mutant (unknown origin) incubated for 1 hr and measured by mobility shift assay
measurement.label: pIC50
Bear in mind: pIC50 is minus log10 of a mol/L concentration; give just that figure.

Observe how each entry below is paired with its result.
[in] Fill in pIC50 for record CC(C)S(=O)(=O)c1ccccc1Nc1nc(Nc2ccc3c(NC(=O)CN4CCCC4)n[nH]c3c2)ncc1Cl
[out] 8.89

[in] Fill in reported pIC50 for this entry: CCN(CC)CC(=O)Nc1n[nH]c2cc(Nc3ncc(Cl)c(Nc4ccccc4S(=O)(=O)C(C)C)n3)ccc12
[out] 8.74

[in] Could you please provide reported pIC50 for CNC(=O)c1ccccc1Nc1nc(Nc2ccc3c(NC(=O)CN4CCCC4)n[nH]c3c2)ncc1Cl ? Thanks!
[out] 8.68

[in] For CC(C)S(=O)(=O)c1ccccc1Nc1nc(Nc2ccc3c(NC(=O)CN(C)C)n[nH]c3c2)ncc1Cl , write its pIC50.
[out] 8.42

We now examine a further compound.
[in] Quick one: give measured pIC50 for CNC(=O)c1ccccc1Nc1nc(Nc2ccc3c(NC(=O)CN(C)C)n[nH]c3c2)ncc1Cl
[out] 8.60

----------
Known pIC50 of a selection of molecules
experimental.target: ALK tyrosine kinase receptor (Homo sapiens, UniProt Q9UM73, L1196M)
Sequence (Q9UM73 19-1620 L1196M limits assumed): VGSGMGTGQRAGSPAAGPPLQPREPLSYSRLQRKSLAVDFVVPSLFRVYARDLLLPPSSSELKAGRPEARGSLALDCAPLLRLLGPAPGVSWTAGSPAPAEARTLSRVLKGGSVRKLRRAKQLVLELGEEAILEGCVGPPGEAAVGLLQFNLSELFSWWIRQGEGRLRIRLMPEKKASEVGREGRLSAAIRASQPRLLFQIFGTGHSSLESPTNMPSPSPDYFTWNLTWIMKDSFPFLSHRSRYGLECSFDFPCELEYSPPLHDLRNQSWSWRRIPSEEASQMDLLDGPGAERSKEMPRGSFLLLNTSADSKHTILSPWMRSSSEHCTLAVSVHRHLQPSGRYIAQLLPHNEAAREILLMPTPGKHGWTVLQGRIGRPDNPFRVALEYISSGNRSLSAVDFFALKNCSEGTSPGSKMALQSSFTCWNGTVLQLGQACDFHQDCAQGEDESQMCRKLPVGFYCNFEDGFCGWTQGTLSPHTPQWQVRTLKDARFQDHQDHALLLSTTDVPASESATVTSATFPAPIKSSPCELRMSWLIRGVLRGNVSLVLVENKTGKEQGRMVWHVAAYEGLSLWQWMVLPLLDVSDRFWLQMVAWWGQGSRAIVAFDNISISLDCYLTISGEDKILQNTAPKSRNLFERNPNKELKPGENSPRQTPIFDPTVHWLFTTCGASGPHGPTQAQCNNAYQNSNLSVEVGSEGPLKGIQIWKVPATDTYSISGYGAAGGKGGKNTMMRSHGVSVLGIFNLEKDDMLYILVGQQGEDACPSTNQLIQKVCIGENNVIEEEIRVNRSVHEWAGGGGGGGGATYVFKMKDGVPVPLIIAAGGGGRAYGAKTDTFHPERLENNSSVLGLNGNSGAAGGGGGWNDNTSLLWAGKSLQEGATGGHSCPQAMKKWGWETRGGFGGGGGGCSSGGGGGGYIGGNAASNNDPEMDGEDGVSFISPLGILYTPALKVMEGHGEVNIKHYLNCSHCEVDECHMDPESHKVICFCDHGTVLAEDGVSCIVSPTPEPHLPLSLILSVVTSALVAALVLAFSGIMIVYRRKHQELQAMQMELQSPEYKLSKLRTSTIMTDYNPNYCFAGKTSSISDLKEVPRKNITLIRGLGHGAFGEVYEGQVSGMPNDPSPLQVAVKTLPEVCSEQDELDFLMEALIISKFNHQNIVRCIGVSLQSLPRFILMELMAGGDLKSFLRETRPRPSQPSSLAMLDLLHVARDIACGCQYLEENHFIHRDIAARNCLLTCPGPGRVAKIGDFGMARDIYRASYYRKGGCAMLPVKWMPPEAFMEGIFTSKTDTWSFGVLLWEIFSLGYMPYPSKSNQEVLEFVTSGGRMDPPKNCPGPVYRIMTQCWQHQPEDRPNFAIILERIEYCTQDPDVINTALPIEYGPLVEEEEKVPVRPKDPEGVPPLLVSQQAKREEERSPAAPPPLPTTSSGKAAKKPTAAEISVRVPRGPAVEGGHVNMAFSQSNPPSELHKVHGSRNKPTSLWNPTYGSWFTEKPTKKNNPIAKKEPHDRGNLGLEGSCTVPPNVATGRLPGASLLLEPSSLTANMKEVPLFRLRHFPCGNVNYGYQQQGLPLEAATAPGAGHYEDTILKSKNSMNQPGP
test.summary: Inhibition of ALK L1196M mutant (unknown origin) incubated for 1 hr and measured by mobility shift assay
FYI, pIC50 means -log10 of a concentration in mol per litre.

These recorded examples may help you get a feel for the data.
[in] Supply pIC50 value. Item: CNC(=O)c1ccccc1Nc1nc(Nc2ccc3c(NC(=O)CN(C)C)n[nH]c3c2)ncc1Cl
[out] 8.18

[in] Consider the molecule CCN(CC)CC(=O)Nc1n[nH]c2cc(Nc3ncc(Cl)c(Nc4ccccc4S(=O)(=O)C(C)C)n3)ccc12 and give its recorded pIC50.
[out] 8.42

[in] Respond only with pIC50 recorded for CC(C)S(=O)(=O)c1ccccc1Nc1nc(Nc2ccc3c(NC(=O)CN4CCCC4)n[nH]c3c2)ncc1Cl
[out] 9.15

Continuing:
[in] Give the measured pIC50 for CC(C)S(=O)(=O)c1ccccc1Nc1nc(Nc2ccc3c(NC(=O)CN(C)C)n[nH]c3c2)ncc1Cl
[out] 8.32

[in] Supply recorded pIC50 for CNC(=O)c1ccccc1Nc1nc(Nc2ccc3c(NC(=O)CN4CCCC4)n[nH]c3c2)ncc1Cl here.
[out] 8.36

----------
test.summary: Cytotoxicity against human HELF cells incubated for 72 hrs and measured by CCK-8 assay
Format: toxicity, cell-based
The entries below are paired with their reported IC50 at 72 h.

[in] Find the measured IC50 at 72 h of CC(C)S(=O)(=O)c1ccccc1Nc1nc(Nc2ccc3c(NC(=O)CN4CCCC4)n[nH]c3c2)ncc1Cl and report it.
[out] > 20 µM

Next, consider the following compound.
[in] Hello, please tell me recorded IC50 at 72 h for this one: Cc1cc(Nc2ncc(Cl)c(Nc3ccccc3S(=O)(=O)C(C)C)n2)c(OC(C)C)cc1C1CCNCC1
[out] > 20 µM

----------
Endpoint: IC50. System: ALK tyrosine kinase receptor (Homo sapiens). Items follow.
Answer format: numeric, nM implied, no suffix.

[in] # return IC50 of CC(C)S(=O)(=O)c1ccccc1Nc1nc(Nc2ccc3c(NC(=O)CN(C)C)n[nH]c3c2)ncc1Cl (system: ALK tyrosine kinase receptor (Homo sapiens))
[out] 2.5

Next, consider the following compound.
[in] For ALK tyrosine kinase receptor (Homo sapiens), give IC50 of the listed compound: CNC(=O)c1ccccc1Nc1nc(Nc2ccc3c(NC(=O)CN(C)C)n[nH]c3c2)ncc1Cl
[out] 3.7

----------
experimental.target: Epidermal growth factor receptor (Homo sapiens)
Sequence (P00533 whole entry): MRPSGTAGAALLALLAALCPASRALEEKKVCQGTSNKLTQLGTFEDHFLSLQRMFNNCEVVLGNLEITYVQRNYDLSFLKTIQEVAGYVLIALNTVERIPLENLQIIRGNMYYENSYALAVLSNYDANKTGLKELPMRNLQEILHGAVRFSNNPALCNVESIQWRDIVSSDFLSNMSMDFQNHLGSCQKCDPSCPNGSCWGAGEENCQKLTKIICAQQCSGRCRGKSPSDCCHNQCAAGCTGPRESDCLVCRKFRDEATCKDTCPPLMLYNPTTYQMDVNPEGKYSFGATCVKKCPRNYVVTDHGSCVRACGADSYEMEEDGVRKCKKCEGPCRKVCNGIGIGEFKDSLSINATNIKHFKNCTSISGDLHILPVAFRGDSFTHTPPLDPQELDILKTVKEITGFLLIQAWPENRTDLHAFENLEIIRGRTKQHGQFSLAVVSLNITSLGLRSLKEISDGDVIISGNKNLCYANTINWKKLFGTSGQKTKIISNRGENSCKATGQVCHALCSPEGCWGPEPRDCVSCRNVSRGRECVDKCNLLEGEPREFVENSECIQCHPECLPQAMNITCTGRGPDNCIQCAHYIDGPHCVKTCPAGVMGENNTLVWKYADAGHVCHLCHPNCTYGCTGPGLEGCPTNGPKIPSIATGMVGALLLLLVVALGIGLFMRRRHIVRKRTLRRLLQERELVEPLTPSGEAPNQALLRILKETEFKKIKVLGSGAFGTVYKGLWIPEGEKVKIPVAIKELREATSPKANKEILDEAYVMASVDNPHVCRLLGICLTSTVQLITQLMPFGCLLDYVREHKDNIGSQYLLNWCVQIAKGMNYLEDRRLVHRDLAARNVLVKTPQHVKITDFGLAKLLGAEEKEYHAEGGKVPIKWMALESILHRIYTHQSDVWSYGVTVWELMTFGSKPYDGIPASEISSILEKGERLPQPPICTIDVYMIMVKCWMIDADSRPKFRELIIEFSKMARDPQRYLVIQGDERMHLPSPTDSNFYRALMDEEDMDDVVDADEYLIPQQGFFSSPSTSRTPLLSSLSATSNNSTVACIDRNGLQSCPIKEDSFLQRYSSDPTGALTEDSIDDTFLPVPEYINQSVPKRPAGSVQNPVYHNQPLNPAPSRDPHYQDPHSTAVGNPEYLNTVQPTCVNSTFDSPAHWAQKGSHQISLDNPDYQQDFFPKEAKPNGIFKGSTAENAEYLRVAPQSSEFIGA
measurement.label: IC50

[in] State its IC50 for this molecule: CNC(=O)c1ccccc1Nc1nc(Nc2ccc3c(NC(=O)CN(C)C)n[nH]c3c2)ncc1Cl
[out] > 1 µM

----------
System: MCF7
test.summary: Antiproliferative activity against human MCF7 cells incubated for 72 hrs and measured by CCK-8 assay
Assay type: functional, cell-based
condition.context: MCF7, 72 h
measurement.label: pIC50
Give only the number. pIC50 is defined as minus log10 of concentration in molar units.

[in] For MCF7, give the measured pIC50 of the entry CC(C)S(=O)(=O)c1ccccc1Nc1nc(Nc2ccc3c(NC(=O)CN4CCCC4)n[nH]c3c2)ncc1Cl
[out] 5.65

We now examine a further molecule.
[in] Give pIC50 for Cc1cc(Nc2ncc(Cl)c(Nc3ccccc3S(=O)(=O)C(C)C)n2)c(OC(C)C)cc1C1CCNCC1 [CERITINIB] tested on MCF7.
[out] 5.73

----------
test.summary: Metabolic stability in Sprague-Dawley rat liver microsomes assessed as half life at 10 uM preincubated for 5 mins followed by NADPH addition and measured upto 60 mins by HPLC analysis
Format: ADME, Microsome
measurement.label: half-life at 10 µM (min)
# output: bare number, implied unit min

[in] Respond only with half-life at 10 µM recorded for CC(C)S(=O)(=O)c1ccccc1Nc1nc(Nc2ccc3c(NC(=O)CN4CCCC4)n[nH]c3c2)ncc1Cl
[out] 16.3
